IC50 values for the molecules below.
Target: human PAD4 (Homo sapiens, UniProt Q9UM07)
Construct: human PAD4 (NM_012387), A2P663, was PCR amplified; His-SUMO (N, cleaved yes)
Sequence (Q9UM07 2-663): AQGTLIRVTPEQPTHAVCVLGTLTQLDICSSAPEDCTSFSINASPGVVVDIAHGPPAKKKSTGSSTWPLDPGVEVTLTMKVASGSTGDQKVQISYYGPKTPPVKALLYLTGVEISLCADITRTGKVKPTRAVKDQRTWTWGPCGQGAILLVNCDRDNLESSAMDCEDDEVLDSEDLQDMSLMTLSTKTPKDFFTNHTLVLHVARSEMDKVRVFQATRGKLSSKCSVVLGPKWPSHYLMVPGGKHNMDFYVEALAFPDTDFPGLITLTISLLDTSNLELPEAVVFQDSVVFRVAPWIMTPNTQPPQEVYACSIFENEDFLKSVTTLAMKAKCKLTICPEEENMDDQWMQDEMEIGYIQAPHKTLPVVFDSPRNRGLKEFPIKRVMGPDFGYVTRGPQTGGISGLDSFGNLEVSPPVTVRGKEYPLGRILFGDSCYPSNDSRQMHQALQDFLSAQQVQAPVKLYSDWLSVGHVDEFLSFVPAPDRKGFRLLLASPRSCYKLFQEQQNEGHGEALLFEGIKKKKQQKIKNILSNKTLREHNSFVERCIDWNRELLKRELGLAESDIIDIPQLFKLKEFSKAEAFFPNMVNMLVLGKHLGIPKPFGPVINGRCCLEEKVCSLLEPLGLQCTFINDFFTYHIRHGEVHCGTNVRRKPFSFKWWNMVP
Experiment: In vitro PAD4 BAEE biochemical assay
Conditions: human PAD4, BAEE substrate; 5 nM PAD4, 2 mM calcium chloride, 3 mM BAEE; geometric mean of multiple experiments
Description: The PCR product was ligated into linearized pET-SUMO vector (Invitrogen, Carlsbad, CA), which is part of the Champion™ pET SUMO Protein Expression System. […] The enzymatic activity of human PAD4 was monitored in a biochemical assay in the presence or absence of compounds using the small peptidyl arginine mimic BAEE (Na-Benzoyl-L-arginine ethyl ester hydrochloride) as substrate. […] Levels of ammonia were monitored by using an amine coupling reaction and were indicative of PAD4 enzymatic activity. […]
measurement.label: IC50

{"columns": ["molecule", "value.reported"],
 "data": [
  ["COc1cc(C(=O)N2[C@H]3CC[C@@H]2[C@H](N)C3)cc2nc(-c3cc4ccc([C@@H](C)Nc5cnn(C(C)(C)C)c5)nc4n3CC3CC3)c(C)n12", "122 nM"],
  ["COc1cc(C(=O)N2[C@H]3CC[C@@H]2[C@H](N)C3)cc2nc(-c3cc4ccc([C@@H](C)NC(=O)C5CN(C(C)=O)C5)nc4n3CC3CC3)c(C)n12", "77 nM"],
  ["COc1cc(C(=O)N2CCC[C@@H](N)C2)cc2nc(-c3cc4cc(F)c(Cl)cc4n3CC3CC3)c(C)n12", "9820 nM"],
  ["COc1cc(C(=O)N2[C@H]3CC[C@@H]2[C@H](N)C3)cc2nc(-c3cc4ccc([C@@H](C)NC(=O)N5CC(O)C5)nc4n3CC3CC3)c(C)n12", "65.2 nM"],
  ["COc1cc(C(=O)N2CC[C@@H]3C[C@]3(N)C2)cc2nc(-c3cc4ccc(N(C(F)F)S(C)(=O)=O)nc4n3CC3CC3)c(C)n12", "1960 nM"],
  ["COc1cc(C(=O)N2[C@H]3CC[C@@H]2[C@H](N)C3)cc2nc(-c3cc4ccc(C(C)(C)CC(=O)N5CC(F)(F)C5)nc4n3CC3CC3)c(C)n12", "175 nM"],
  ["COc1cc(C(=O)N2[C@H]3CC[C@@H]2[C@H](N)C3)cc2nc(-c3cc4ccc([C@@H](C)NC(=O)N5CCC5)nc4n3CC3CC3)c(C)n12", "70 nM"],
  ["COc1cc(C(=O)N2[C@H]3CC[C@@H]2[C@H](N)C3)cc2nc(-c3cc4ccc([C@@H](C)NC(=O)CN=S(C)(C)=O)nc4n3CC3CC3)c(C)n12", "39 nM"],
  ["COc1cc(C(=O)N2[C@@H]3CC[C@@H](N)[C@H]2CC3)cc2nc(-c3cc4ccc(N(C(F)F)S(C)(=O)=O)nc4n3CC3CC3)c(CC3CC3)n12", "754 nM"],
  ["COc1cc(C(=O)N2C[C@H]3CC[C@@H]2[C@H](N)C3)cc2nc(-c3cc4ccc(N(C(F)F)S(C)(=O)=O)nc4n3CC3CC3)c(C)n12 [Example 381]", "538 nM"],
  ["COc1cc(C(=O)N2[C@H]3CC[C@@H]2[C@H](N)C3)cc2nc(-c3cc4ccc(C(NC(=O)C(C)(C)C)C(F)(F)F)nc4n3CC3CC3)c(C)n12 (some centres unmarked)", "689 nM"],
  ["CNc1cc(C(=O)N2CCC[C@@H](N)C2)cc2nc(-c3cc4ccc(N(C(F)F)S(C)(=O)=O)nc4n3CC3CC3)c(C)n12", "341 nM"],
  ["COc1cc(C(=O)N2C[C@H](N)C[C@@H](F)C2)cc2nc(-c3cc4ccc([C@@H](C)NC(=O)C56CC(F)(C5)C6)nc4n3CC3CC3)c(C)n12", "369 nM"],
  ["COc1cc(C(=O)N2CC[C@H]3CCN[C@H]3C2)cc2nc(-c3cc4ccc(N(C(F)F)S(C)(=O)=O)nc4n3CC3CC3)c(C)n12 [Example 420]", "60.6 nM"]
]}

This collection of values is drawn from patent US12240862B2.
